target: UniProt P00519; assay: pIC50, kinobeads binding competition; conditions: cell material: Lysate mix
Sequence (P00519 whole entry): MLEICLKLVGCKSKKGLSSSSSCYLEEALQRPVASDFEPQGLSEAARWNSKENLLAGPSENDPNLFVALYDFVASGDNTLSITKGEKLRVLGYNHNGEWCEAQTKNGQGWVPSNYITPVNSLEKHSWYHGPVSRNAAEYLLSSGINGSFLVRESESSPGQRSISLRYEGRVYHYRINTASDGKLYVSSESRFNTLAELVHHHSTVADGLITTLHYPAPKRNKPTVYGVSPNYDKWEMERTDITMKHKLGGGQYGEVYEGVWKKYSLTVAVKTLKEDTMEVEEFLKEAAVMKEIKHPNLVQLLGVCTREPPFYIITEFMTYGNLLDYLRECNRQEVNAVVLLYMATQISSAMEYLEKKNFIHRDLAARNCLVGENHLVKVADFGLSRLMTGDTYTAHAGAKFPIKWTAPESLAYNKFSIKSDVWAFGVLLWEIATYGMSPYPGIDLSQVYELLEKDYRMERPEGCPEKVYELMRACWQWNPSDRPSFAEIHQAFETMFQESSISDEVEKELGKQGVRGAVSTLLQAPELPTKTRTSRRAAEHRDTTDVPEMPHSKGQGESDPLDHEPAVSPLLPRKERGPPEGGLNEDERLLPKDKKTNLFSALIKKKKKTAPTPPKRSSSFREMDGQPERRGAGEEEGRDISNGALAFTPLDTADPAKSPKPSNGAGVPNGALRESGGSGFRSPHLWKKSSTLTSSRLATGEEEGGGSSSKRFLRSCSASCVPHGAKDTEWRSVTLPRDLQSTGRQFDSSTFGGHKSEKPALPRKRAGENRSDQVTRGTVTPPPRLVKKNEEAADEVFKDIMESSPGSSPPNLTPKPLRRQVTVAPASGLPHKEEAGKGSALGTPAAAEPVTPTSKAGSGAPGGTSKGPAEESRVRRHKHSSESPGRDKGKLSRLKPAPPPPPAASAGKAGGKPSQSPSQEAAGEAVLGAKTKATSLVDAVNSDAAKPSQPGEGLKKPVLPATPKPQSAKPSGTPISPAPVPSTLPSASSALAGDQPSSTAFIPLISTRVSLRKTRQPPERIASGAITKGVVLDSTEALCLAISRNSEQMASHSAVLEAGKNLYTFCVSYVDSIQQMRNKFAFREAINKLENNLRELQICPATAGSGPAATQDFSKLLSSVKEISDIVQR
Recorded endpoint: pIC50

>>> data_value("CCNC(=O)c1cc(Nc2cc(C)[nH]n2)nc(N2CCN(Cc3ccc(S(=O)(=O)F)cc3)CC2)n1")
"< 4.52"
>>> data_value("O=C(NCCNC(=O)c1cc(Nc2cc(C3CC3)[nH]n2)nc(N2CCN(Cc3ccc(S(=O)(=O)F)cc3)CC2)n1)OC1CC/C=C/CCC1 (stereo not given)")
"< 4.52"

IN: Could you tell me which pIC50 is on file for Cc1cc(Nc2cc(C(=O)NCCNC(=O)OC3CC/C=C/CCC3)nc(N3CCN(Cc4ccc(S(=O)(=O)F)cc4)CC3)n2)n[nH]1 (stereo not given) ?
OUT: < 4.52

IN: Please report the recorded pIC50 for `C#CCNC(=O)c1cc(Nc2cc(C)[nH]n2)nc(N2CCN(Cc3ccc(S(=O)(=O)F)cc3)CC2)n1` .
OUT: < 4.52

IN: Quick one: pIC50 for `C#CCNC(=O)c1cc(Nc2cc(C3CC3)[nH]n2)nc(N2CCN(Cc3ccc(S(=O)(=O)F)cc3)CC2)n1` ?
OUT: 4.67
